B1: glmS ribozyme (parent)
chain: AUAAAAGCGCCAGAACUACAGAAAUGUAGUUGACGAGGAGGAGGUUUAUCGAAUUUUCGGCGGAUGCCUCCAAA

Variants of: B1
Procedure summary: self-cleavage kobs at 640 uM GlcN6P; higher = faster cleavage; RNA array
Protocol conditions: with glucosamine-6-phosphate
Variants at the floor of the assay were thinned out.
Listing of entries alongside the reported self-cleavage kobs at 640 uM GlcN6P.
Measured quantity: self-cleavage kobs at 640 uM GlcN6P

>>> result("C8U U45G")
"< 1e-05 s⁻¹"
>>> result("G26A A39U G40C")
"0.000262 s⁻¹"
>>> result("G32U G35A A42C")
"< 1e-05 s⁻¹"
>>> result("A12C U57A")
"5.75e-05 s⁻¹"
>>> result("G37C A64U")
"< 1e-05 s⁻¹"
>>> result("C11A U46G")
"< 1e-05 s⁻¹"
>>> result("G29A A36U U55G")
"< 1e-05 s⁻¹"
>>> result("G7U A15G")
"< 1e-05 s⁻¹"
>>> result("G38C A42C")
"< 1e-05 s⁻¹"
>>> result("C50U C67A")
"6.32e-05 s⁻¹"
>>> result("C34U U57A")
"< 1e-05 s⁻¹"
>>> result("G32C C58A")
"4.35e-05 s⁻¹"
>>> result("G29U C34U C50G C70U")
"0.000136 s⁻¹"
>>> result("G51U U56A G63U")
"< 1e-05 s⁻¹"
>>> result("U30G U46C")
"0.000167 s⁻¹"
>>> result("G41U C68U U69C")
"< 1e-05 s⁻¹"
>>> result("C58A G66A")
"4.87e-05 s⁻¹"
>>> result("C10G G13C A39G")
"< 1e-05 s⁻¹"
>>> result("C19A A48U")
"6.44e-05 s⁻¹"
>>> result("G37C G41A C50G G60A C67G C68A")
"8.46e-05 s⁻¹"
>>> result("A6U A39U")
"2.53e-05 s⁻¹"
>>> result("C16G G32U")
"0.000144 s⁻¹"
>>> result("G9A C11A A14G C34G G35U A36U A48U U55C C67G U69C")
"< 1e-05 s⁻¹"
>>> result("A6U G13U G37U A48U U69G")
"9.26e-05 s⁻¹"
>>> result("G13C U45A")
"6.93e-05 s⁻¹"
>>> result("G63A C70G")
"4.94e-05 s⁻¹"
>>> result("G41U A42G")
"0.000285 s⁻¹"
>>> result("C10U G41A")
"< 1e-05 s⁻¹"
>>> result("G9C C71G")
"< 1e-05 s⁻¹"
>>> result("C11G U30C")
"< 1e-05 s⁻¹"
>>> result("G7C A14U")
"< 1e-05 s⁻¹"
>>> result("A12U G32A")
"0.000203 s⁻¹"
>>> result("A53C C68A")
"< 1e-05 s⁻¹"
>>> result("A15U U30G U46G C67G")
"6.26e-05 s⁻¹"
>>> result("U45A C58A C71U")
"0.000102 s⁻¹"
>>> result("A14G A15G C34G U69A")
"0.000303 s⁻¹"
>>> result("G66A C71A")
"0.0014 s⁻¹"
>>> result("A36G G51C C71G")
"< 1e-05 s⁻¹"
>>> result("A39G C68G")
"0.000165 s⁻¹"
>>> result("C11U G35U G44A")
"< 1e-05 s⁻¹"
>>> result("C8G G41U C61A")
"< 1e-05 s⁻¹"
>>> result("A53C C71G")
"0.000101 s⁻¹"
>>> result("U30G U54C")
"0.00235 s⁻¹"
>>> result("G9U C10U C11A")
"< 1e-05 s⁻¹"
>>> result("C8U G66U")
"< 1e-05 s⁻¹"
>>> result("C10U A12C G60U")
"< 1e-05 s⁻¹"

Provenance of the data: the supplement of paper PMC7125110
